tested on: Klebsiella pneumoniae; test: Antimicrobial activity against blaKPC-positive Klebsiella pneumoniae S7 by broth microdilution method; assay type: functional
// reported MIC for each item listed
# unit: µg/mL | format: bare number

Example entries and their recorded answers appear below.
molecule: CC(C)(O/N=C(\C(=O)N[C@@H]1C(=O)N2C(C(=O)[O-])=C(C[n+]3ccccc3)CS[C@H]12)c1csc(N)n1)C(=O)O
MIC (µg/mL): 32

molecule: O=C(O)c1cn(C2CC2)c2cc(N3CCNCC3)c(F)cc2c1=O
MIC (µg/mL): 32

molecule: C[C@@H](O)[C@H]1C(=O)N2C(C(=O)O)=C(S[C@@H]3CN[C@H](C(=O)N(C)C)C3)[C@H](C)[C@H]12
MIC (µg/mL): 32

Turning now to a further record.
Query: For the molecule NCC[C@H](O)C(=O)N[C@@H]1C[C@H](N)[C@@H](O[C@H]2O[C@H](CN)[C@@H](O)[C@H](O)[C@H]2O)[C@H](O)[C@H]1O[C@H]1O[C@H](CO)[C@@H](O)[C@H](N)[C@H]1O , give its reported MIC.
Result: 1

----------
tested on: Klebsiella pneumoniae; assay: Antimicrobial activity against blaKPC-positive Klebsiella pneumoniae S5 by broth microdilution method; format: functional
readout kind: MIC (µg/mL)
# unit: µg/mL | format: bare number

Example entries and their recorded answers appear below.
compound: C[C@@H](O)[C@H]1C(=O)N2C(C(=O)O)=C(S[C@@H]3CN[C@H](C(=O)N(C)C)C3)[C@H](C)[C@H]12
recorded measurement: 64
--
compound: NCC[C@H](O)C(=O)N[C@@H]1C[C@H](N)[C@@H](O[C@H]2O[C@H](CN)[C@@H](O)[C@H](O)[C@H]2O)[C@H](O)[C@H]1O[C@H]1O[C@H](CO)[C@@H](O)[C@H](N)[C@H]1O
recorded measurement: 64
--
compound: C[C@@H](O)[C@H]1C(=O)N2C(C(=O)O)=C(SCCNC=N)C[C@H]12 [IMIPENEM ANHYDROUS]
recorded measurement: 64

Query: For the compound CN(C)c1cc(NC(=O)CNC(C)(C)C)c(O)c2c1C[C@H]1C[C@H]3[C@H](N(C)C)C(O)=C(C(N)=O)C(=O)[C@@]3(O)C(O)=C1C2=O , give its reported MIC.
Result: 1

----------
// reported MIC for each item listed
tested on: Klebsiella pneumoniae; assay: Antimicrobial activity against blaKPC-positive Klebsiella pneumoniae S14 by broth microdilution method; format: functional
# unit: µg/mL | format: bare number

molecule: C[C@@H](O)[C@H]1C(=O)N2C(C(=O)O)=C(S[C@@H]3CN[C@H](C(=O)N(C)C)C3)[C@H](C)[C@H]12
result unit: µg/mL
recorded measurement: 64

molecule: O=C(O)c1cn(C2CC2)c2cc(N3CCNCC3)c(F)cc2c1=O
result unit: µg/mL
recorded measurement: 64

Turning now to a further record.
Query: For the compound NCC[C@H](O)C(=O)N[C@@H]1C[C@H](N)[C@@H](O[C@H]2O[C@H](CN)[C@@H](O)[C@H](O)[C@H]2O)[C@H](O)[C@H]1O[C@H]1O[C@H](CO)[C@@H](O)[C@H](N)[C@H]1O , give its reported MIC.
Result: 32

----------
tested on: Klebsiella pneumoniae; experiment: Antimicrobial activity against blaKPC-positive Klebsiella pneumoniae S12 by broth microdilution method; type: functional
readout kind: MIC

molecule: O=C(O)c1cn(C2CC2)c2cc(N3CCNCC3)c(F)cc2c1=O
MIC: < 0.06 µg/mL
//
molecule: CO/N=C(\C(=O)N[C@@H]1C(=O)N2C(C(=O)[O-])=C(C[N+]3(C)CCCC3)CS[C@H]12)c1csc(N)n1
MIC: > 64 µg/mL
//
molecule: CC(C)(O/N=C(\C(=O)N[C@@H]1C(=O)N2C(C(=O)[O-])=C(C[n+]3ccccc3)CS[C@H]12)c1csc(N)n1)C(=O)O
MIC: > 64 µg/mL

Turning now to a further record.
Query: For the molecule C[C@H]1[C@H](NC(=O)/C(=N\OC(C)(C)C(=O)O)c2csc(N)n2)C(=O)N1S(=O)(=O)O , give its reported MIC.
Result: > 64 µg/mL
